Target: Src (Homo sapiens (Human), UniProt P12931)
Sequence (P12931 whole entry, looked up, species assumed): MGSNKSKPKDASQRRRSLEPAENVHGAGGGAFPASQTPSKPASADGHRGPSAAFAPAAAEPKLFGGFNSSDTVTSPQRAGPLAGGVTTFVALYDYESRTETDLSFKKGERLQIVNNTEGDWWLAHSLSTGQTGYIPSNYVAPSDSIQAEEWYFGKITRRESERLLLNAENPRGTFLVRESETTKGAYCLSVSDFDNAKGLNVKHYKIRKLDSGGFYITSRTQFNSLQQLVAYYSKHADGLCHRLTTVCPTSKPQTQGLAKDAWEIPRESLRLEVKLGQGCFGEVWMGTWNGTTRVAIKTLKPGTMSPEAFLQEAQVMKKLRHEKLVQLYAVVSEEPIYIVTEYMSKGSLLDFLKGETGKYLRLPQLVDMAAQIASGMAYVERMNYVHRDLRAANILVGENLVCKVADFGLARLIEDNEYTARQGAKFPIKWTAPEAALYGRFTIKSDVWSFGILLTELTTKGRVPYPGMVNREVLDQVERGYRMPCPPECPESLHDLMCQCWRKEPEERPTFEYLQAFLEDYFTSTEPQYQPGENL
Assay: Src kinase selectivity assay
Assay type: biochemical
Conditions: 1 μM inhibitor concentration
Assign percentage inhibition of Src to each entry below.
Give the quantity in percentage, number only.

Which percentage inhibition of Src value is on record for c1cc2[nH]nc3c2c(n1)N(C1CCOCC1)CCC3 ?
0

Try this compound next: c1cc2[nH]nc3c2c(n1)N(C1CCCC1)CCC3
0

Try this compound next: CC(C)n1ncc2c1CN(C1CCN(C)CC1)c1nccc3[nH]nc-2c13
0

Try this compound next: c1cc2[nH]nc3c2c(n1)N(C1CCC1)CCC3
13

Try this compound next: CN1CCC(N2Cc3ccccc3-c3n[nH]c4ccnc2c34)CC1
1

###

Molecular target: EPH-B3 (Homo sapiens (Human))
Sequence (P54753 34-998, species assumed): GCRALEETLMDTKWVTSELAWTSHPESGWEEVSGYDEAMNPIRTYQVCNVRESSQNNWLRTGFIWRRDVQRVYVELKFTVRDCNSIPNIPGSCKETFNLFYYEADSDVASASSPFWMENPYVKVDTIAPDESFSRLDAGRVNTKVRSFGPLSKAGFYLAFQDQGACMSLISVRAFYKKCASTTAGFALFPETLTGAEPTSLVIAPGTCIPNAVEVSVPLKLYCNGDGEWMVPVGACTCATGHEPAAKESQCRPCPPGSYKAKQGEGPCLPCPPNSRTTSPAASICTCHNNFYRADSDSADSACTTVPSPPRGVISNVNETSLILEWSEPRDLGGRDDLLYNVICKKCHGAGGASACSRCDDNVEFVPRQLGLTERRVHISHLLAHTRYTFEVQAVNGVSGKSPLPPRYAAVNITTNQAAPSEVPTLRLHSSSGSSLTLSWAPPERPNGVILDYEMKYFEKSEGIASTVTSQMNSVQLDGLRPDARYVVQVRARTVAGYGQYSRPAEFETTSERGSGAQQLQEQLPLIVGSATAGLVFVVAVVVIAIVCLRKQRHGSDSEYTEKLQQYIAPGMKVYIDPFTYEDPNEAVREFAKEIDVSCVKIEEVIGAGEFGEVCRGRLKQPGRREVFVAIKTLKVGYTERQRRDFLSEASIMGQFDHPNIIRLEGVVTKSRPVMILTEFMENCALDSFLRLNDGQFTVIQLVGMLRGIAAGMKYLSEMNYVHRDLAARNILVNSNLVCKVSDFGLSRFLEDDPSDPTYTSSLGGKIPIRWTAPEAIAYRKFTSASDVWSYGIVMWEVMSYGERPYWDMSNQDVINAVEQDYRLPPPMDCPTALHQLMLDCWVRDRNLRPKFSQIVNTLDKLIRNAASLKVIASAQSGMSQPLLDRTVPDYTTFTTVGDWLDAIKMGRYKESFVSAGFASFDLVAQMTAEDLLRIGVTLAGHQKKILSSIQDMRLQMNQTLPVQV
Test: EPH-B3 kinase selectivity assay
Format: biochemical
Conditions: 1 μM inhibitor concentration
Assign percentage inhibition of EPH-B3 to each entry below.
# number then unit; no other words

Which percentage inhibition of EPH-B3 value is on record for CN1CCC(N2Cc3ccccc3-c3n[nH]c4ccnc2c34)CC1 ?
12 percentage

Try this compound next: c1cc2[nH]nc3c2c(n1)N(C1CCOCC1)CCC3
0 percentage

Try this compound next: c1cc2[nH]nc3c2c(n1)N(C1CCC1)CCC3
0 percentage

Try this compound next: c1cc2[nH]nc3c2c(n1)N(C1CCCC1)CCC3
0 percentage

Try this compound next: CC(C)n1ncc2c1CN(C1CCN(C)CC1)c1nccc3[nH]nc-2c13
5 percentage

###

Target: ULK2 (Homo sapiens (Human), UniProt Q8IYT8)
Sequence (Q8IYT8 whole entry, species assumed): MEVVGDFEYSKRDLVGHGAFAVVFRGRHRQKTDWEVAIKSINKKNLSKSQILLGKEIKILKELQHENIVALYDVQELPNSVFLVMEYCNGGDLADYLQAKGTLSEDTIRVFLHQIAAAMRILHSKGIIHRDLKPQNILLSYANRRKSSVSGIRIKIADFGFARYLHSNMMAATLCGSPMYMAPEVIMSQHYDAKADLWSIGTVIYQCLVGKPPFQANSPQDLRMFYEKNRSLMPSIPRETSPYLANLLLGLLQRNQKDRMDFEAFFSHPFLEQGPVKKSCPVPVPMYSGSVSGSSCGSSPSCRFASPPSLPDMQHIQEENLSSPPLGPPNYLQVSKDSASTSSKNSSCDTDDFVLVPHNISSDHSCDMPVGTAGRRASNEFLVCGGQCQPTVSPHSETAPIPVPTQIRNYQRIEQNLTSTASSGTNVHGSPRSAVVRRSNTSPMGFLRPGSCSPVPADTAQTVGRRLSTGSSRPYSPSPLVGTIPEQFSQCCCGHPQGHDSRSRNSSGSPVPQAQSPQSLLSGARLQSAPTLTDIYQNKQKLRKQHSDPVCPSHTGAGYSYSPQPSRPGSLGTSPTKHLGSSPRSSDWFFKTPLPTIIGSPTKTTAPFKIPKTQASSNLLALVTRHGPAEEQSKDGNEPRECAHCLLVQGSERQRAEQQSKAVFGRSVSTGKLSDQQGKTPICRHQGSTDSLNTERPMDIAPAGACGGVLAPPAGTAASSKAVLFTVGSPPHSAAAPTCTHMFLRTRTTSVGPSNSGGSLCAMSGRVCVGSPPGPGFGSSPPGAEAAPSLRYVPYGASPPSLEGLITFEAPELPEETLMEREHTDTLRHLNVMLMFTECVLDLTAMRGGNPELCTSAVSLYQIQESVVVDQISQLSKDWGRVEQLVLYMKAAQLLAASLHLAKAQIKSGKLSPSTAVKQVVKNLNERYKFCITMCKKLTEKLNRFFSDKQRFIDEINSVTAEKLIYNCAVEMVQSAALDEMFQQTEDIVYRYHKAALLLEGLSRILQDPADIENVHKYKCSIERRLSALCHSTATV
Assay: ULK2 kinase selectivity assay
Assay type: biochemical
Details: 1 μM inhibitor concentration
Assign percentage inhibition of ULK2 to each entry below.
Give the quantity in percentage, number only.

Which percentage inhibition of ULK2 value is on record for c1cc2[nH]nc3c2c(n1)N(C1CCOCC1)CCC3 ?
7

Try this compound next: CC(C)n1ncc2c1CN(C1CCN(C)CC1)c1nccc3[nH]nc-2c13
10

Try this compound next: CN1CCC(N2Cc3ccccc3-c3n[nH]c4ccnc2c34)CC1
31

Try this compound next: c1cc2[nH]nc3c2c(n1)N(C1CCC1)CCC3
12

Try this compound next: c1cc2[nH]nc3c2c(n1)N(C1CCCC1)CCC3
1

###

Molecular target: MELK (Homo sapiens (Human))
Sequence (Q14680 whole entry, species assumed): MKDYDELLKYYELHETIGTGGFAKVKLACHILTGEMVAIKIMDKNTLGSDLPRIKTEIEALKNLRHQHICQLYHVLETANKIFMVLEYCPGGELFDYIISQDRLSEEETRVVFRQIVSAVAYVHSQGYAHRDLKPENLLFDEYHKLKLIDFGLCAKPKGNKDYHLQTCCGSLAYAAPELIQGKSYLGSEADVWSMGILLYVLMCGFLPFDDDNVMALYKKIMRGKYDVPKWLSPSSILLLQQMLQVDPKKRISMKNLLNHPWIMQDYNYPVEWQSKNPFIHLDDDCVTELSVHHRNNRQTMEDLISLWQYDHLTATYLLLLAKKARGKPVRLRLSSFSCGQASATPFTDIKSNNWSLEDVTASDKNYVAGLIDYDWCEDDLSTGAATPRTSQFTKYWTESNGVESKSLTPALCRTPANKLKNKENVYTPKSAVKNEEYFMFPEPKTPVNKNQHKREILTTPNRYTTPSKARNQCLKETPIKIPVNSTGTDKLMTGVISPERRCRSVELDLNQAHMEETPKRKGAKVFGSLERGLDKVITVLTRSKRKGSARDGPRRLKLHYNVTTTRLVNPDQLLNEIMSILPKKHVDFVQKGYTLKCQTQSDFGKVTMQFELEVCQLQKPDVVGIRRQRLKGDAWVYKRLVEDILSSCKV
Assay: MELK kinase selectivity assay
Type: biochemical
Details: 1 μM inhibitor concentration
Assign percentage inhibition of MELK to each entry below.
Give the quantity in percentage, number only.

Which percentage inhibition of MELK value is on record for CC(C)n1ncc2c1CN(C1CCN(C)CC1)c1nccc3[nH]nc-2c13 ?
72

Try this compound next: c1cc2[nH]nc3c2c(n1)N(C1CCCC1)CCC3
1

Try this compound next: c1cc2[nH]nc3c2c(n1)N(C1CCOCC1)CCC3
24

Try this compound next: CN1CCC(N2Cc3ccccc3-c3n[nH]c4ccnc2c34)CC1
78

Try this compound next: c1cc2[nH]nc3c2c(n1)N(C1CCC1)CCC3
10

###

Assign percentage inhibition of PIM1 to each entry below.
Molecular target: PIM1 (Homo sapiens (Human), UniProt P11309)
Sequence (P11309 whole entry, species assumed): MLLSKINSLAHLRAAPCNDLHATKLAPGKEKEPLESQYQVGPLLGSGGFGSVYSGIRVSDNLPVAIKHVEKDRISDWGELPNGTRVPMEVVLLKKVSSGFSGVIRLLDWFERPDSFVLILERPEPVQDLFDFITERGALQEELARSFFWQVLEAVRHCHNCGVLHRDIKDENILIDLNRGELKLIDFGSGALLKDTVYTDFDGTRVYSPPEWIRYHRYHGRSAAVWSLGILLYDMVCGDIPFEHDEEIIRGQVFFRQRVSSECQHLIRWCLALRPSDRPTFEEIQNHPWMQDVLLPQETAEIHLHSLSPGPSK
Assay: PIM1 kinase selectivity assay
Type: biochemical
Details: 1 μM inhibitor concentration
# number then unit; no other words

Which percentage inhibition of PIM1 value is on record for CC(C)n1ncc2c1CN(C1CCN(C)CC1)c1nccc3[nH]nc-2c13 ?
77 percentage

Try this compound next: c1cc2[nH]nc3c2c(n1)N(C1CCC1)CCC3
0 percentage

Try this compound next: c1cc2[nH]nc3c2c(n1)N(C1CCOCC1)CCC3
0 percentage

Try this compound next: c1cc2[nH]nc3c2c(n1)N(C1CCCC1)CCC3
0 percentage

Try this compound next: CN1CCC(N2Cc3ccccc3-c3n[nH]c4ccnc2c34)CC1
26 percentage
